Target Desc: T1, muNav1.7α (murine, UniProt Q62205 1-1984)
T1 construct: HEK JmpIn cells; also called murine Nav1.7α
Experiment: binding FACS, HEK JmpIn
Test Readout: pEC50
Friendly reminder that pEC50 comes from taking -log10 of the concentration in mol/L.

INSERT INTO results (binder, obs_value) VALUES
  ('F010301939 (VHH, also called F0103464B09(L11V, K83R, G88A, V89L)) VHH: EVQLVESGGGVVQPGGSLRLSCATTSRAFIRDVFTGWYRRVPGKERELVARIYNGGNTNYADFAKGRFSISRDNAKKMVTLRMSNLRPEDTALYYCLFSGTINTGREYRSGDYWGQGTLVTVSS', 8.20);

Here is another binder to look at.
Problem: Note down pEC50 recorded for F010301869 (VHH, also called F0103464B09(L11V, S68T, M77T, T79Y, R81Q, S82aN, N82bS, K83R, G88A, V89L)) VHH: EVQLVESGGGVVQPGGSLRLSCATTSRAFIRDVFTGWYRRVPGKERELVARIYNGGNTNYADFAKGRFTISRDNAKKTVYLQMNSLRPEDTALYYCLFSGTINTGREYRSGDYWGQGTLVTVSS
Solution: 7.77
